biological target: T1, CD137-hisFc fusion protein (Sino Biological Cat 10041-H03H) (human, UniProt Q07011 24-186); assay: BLI Octet, Fab
T1 construct: Bought; also called recombinant human CD137 (fused with human Fc and His tag); not shown: His tag and human Fc
Reported koff by item:

binder | koff
Fab 5348 (Fab, V domains shown, Fab from E. coli; also called VH23/VL23) VH: EVQLVESGGGLVQPGGSLRLSCAASGFSLSTGGVAVGWIRQAPGKGLEWVSGISGDGGTTYYADSVKGRFTISRDNSKNTLYLQLNSLRAEDTAVYYCTREDYGPHAYWGQGTLVTVSS VL: DIQLTQSPSSLSASVGDRVTITCRASQSITTYLNWYQQKPGKAPKLLIYDASNLETGVPSRFSGSGSGTDFTLTISSLQPEDFATYYCQQSYSYSTFGQGTKVEIKR | 0.0133 s⁻¹
Fab 5363 (Fab, V domains shown, Fab from E. coli; also called VH29/VL29) VH: EVQLVESGGGLVQPGGSLRLSCAASGYSISSGHYWTWIRQAPGKGLEWVSAISGSGSSTYYADSVKGRFTISRDNSKNTLYLQLNSLRAEDTAVYYCARGGSDAVLGDWFAYWGQGTLVTVSS VL: DIQLTQSPSSLSASVGDRVTITCRASQGVGSYLAWYQQKPGKAPKLLIYDASNLETGVPSRFSGSGSGTDFTLTISSLQPEDFATYYCQQGYQLWTFGQGTKVEIKR | 0.000826 s⁻¹

Next binder, please.
Lookup: What value of koff has been recorded for this entry: Fab 7077 (Fab, V domains shown, Fab from E. coli; also called VH40/VL40) VH: EVQLVESGGGLVQPGGSLRLSCAASGFSLSTGGVGVAWIRQAPGKGLEWVSYISGSGDTTYYADSVKGRFTISRDNSKNTLYLQLNSLRAEDTAVYYCAREGSDTVVGDWFAYWGQGTLVTVSS VL: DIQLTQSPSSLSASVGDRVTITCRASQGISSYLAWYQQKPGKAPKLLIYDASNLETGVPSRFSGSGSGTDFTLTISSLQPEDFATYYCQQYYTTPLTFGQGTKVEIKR
Found: 0.00934 s⁻¹
